Biological target: Human C3 (human, UniProt P01024 23-1663)
Sequence (P01024 23-1663 limits assumed): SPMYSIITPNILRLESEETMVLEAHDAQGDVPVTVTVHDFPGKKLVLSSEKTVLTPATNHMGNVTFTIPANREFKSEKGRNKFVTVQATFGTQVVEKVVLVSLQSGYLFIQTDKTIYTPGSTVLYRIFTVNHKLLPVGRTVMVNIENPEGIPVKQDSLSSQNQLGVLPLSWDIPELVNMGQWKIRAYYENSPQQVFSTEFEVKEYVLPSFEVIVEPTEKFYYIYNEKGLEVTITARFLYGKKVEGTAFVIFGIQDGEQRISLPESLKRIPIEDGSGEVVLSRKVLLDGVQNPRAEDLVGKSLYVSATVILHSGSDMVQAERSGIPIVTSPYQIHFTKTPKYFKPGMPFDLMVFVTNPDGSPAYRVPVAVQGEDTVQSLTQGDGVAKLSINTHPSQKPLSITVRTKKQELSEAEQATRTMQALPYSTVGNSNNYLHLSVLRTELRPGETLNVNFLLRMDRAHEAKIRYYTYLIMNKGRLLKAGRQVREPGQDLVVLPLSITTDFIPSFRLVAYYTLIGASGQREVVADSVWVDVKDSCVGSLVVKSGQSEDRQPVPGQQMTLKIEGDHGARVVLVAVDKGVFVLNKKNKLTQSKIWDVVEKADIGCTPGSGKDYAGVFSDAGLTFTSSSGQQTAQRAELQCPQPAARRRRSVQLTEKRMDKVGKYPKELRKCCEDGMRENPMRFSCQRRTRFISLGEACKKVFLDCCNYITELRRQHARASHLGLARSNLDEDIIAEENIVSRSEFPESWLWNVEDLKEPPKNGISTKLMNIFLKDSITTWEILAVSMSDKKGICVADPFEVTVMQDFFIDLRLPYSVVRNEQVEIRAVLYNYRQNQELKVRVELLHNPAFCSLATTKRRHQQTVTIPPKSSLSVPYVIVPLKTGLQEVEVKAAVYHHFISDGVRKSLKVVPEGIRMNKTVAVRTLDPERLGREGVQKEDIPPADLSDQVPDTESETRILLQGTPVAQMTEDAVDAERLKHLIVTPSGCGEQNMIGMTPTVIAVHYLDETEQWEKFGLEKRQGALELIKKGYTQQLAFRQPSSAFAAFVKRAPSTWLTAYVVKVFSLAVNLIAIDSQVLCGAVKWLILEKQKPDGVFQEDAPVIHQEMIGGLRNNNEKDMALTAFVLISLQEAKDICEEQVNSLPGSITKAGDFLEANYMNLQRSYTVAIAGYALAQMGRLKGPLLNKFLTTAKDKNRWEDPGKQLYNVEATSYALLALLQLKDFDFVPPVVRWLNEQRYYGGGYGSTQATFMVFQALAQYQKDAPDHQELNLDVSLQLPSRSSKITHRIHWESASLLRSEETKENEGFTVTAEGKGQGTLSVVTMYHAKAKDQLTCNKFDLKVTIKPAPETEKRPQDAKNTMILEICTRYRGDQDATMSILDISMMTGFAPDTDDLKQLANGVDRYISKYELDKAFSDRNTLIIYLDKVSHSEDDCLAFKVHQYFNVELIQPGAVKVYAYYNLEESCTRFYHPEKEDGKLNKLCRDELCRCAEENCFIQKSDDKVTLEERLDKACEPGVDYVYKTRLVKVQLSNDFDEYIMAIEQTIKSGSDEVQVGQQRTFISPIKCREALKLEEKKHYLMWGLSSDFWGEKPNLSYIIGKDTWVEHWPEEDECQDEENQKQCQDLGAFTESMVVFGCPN
Test: cell-based or functional assay
Starred links: 1 amine or outer side, 2 acyl side, 3 side chain; linkers in the order of their positions; H or OH if unused. Positions of bridges follow the written chain, without caps; N, C: chain ends. Non-standard residues stand in square brackets, D forms with d. Groups on a side chain read outwards from the residue. *: point of attachment. Trp(1-Me) = Cn1cc(C[C@H](N)C(=O)O)c2ccccc21; C18 diacid = O=C(O)CCCCCCCCCCCCCCCCC(=O)*; γGlu = O=C(O)[C@H](CCC(=O)[*:2])N[*:1]; AEEA = NCCOCCOCC(=O)O; Sar = CNCC(=O)O
test readout: IC50[nM], inhibition of hemolysis

>  <binder>
Ac-SEFCI[Trp(1-Me)]QDWGEHRC[Sar]EGE[AEEA]ESK([γGlu-γGlu-C18 diacid])-NH2 (disulfide 4-14) [Compound 140]

>  <test readout>
IC50[nM], inhibition of hemolysis

>  <measured result>
< 100 nM

$$$$
>  <binder>
Ac-SEFCI[Trp(1-Me)]QDWGEHRC[Sar]EGE[AEEA][AEEA]K([γGlu-Gly-γGlu-C18 diacid])-NH2 (disulfide 4-14) [Compound 123]

>  <test readout>
IC50[nM], inhibition of hemolysis

>  <measured result>
< 100 nM

$$$$
>  <binder>
Ac-ICIWQDWGSHRCT-NH2 (disulfide 2-12; SMILES CC[C@H](C)[C@H](NC(C)=O)C(=O)N[C@H]1CSSC[C@@H](C(=O)N[C@H](C(N)=O)[C@@H](C)O)NC(=O)[C@H](CCCNC(=N)N)NC(=O)[C@H](Cc2c[nH]cn2)NC(=O)[C@H](CO)NC(=O)CNC(=O)[C@H](Cc2c[nH]c3ccccc23)NC(=O)[C@H](CC(=O)O)NC(=O)[C@H](CCC(N)=O)NC(=O)[C@H](Cc2c[nH]c3ccccc23)NC(=O)[C@H]([C@@H](C)CC)NC1=O) [Compound 6]

>  <test readout>
IC50[nM], inhibition of hemolysis

>  <measured result>
< 250 nM

$$$$
